B1: RTN1 (parent)
chain: VVAYLALAALSATISFRIYKSVLQ

variants of: B1; assay: protein stability index of a GFP-peptide fusion (GPS, HEK-293T) (PSI 1-6); higher = more stable; conditions: c terminus: a fixed tail appended;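 note: lentivirally expressed fusions sorted by FACS into six bins by GFP to DsRed ratio, PSI derived from sequencing read proportions per bin multiplied by bin number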
endpoint: protein stability index

mutantCode | val
V2G | 1.72
Y19L | 1.46
I14M | 3.4
V22E | 3.42
F16Y | 3.52
S15V | 4.48
L5M | 2.54
Q24D | 3.01
K20R | 4.17
L7W | 4.04
I18T | 1.35
A12W | 3.1
V2R | 3.31
L23C | 3.13
A3D | 2.01
A3I | 2.65
K20W | 2.77
Y19R | 3.4
S11N | 3.04
V2Q | 3.03
V22C | 3.58
A8K | 2.2

Source of measurements: the supplement of paper PMC10567573
